# assay.summary: anti-His antibody binders, primary screen, artefact control for SMM control protein annotation, biochemical, small-molecule microarray, 635 nm fluorescence (AID 1128);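 note: score merges feature fluorescence with signal-to-noise for each printed compound spot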
# applied.conditions: anti-His Alexa647 antibody binding, higher = more signal
Parameter: composite z-score. Scope: all listed entries.
Number, no unit, nothing else.

{"compound": "C#CCCCON=C1C[C@@H](O)[C@@H](O)[C@@H]2[C@@H]3C(=O)N([C@@H](C)c4ccccc4)C(=O)[C@@H]3CC[C@@H]12", "result.number": -0.559}
{"compound": "CC(=O)OC[C@H]1O[C@H](CC=NO[C@@H](C)c2cn([C@H](CO)Cc3ccccc3)nn2)C=C[C@@H]1OC(C)=O", "result.number": -0.0515}

Req: Retrieve composite z-score measured for C[C@@H]1CC[C@H]2C(=O)OC(Cc3ccccc3)CN2[C@H]1c1ccc(Br)cc1 (some centres not stated) and print it.
Resp: 0.227

Req: Retrieve composite z-score measured for COc1ccc(COC(=O)NN=C2C[C@@H](O)[C@@H](O)[C@@H]3[C@@H]4C(=O)N(c5cccc(Oc6ccccc6)c5)C(=O)[C@@H]4CC[C@H]23)cc1 and print it.
Resp: 0.362

* * *

# Tested on: Sonic hedgehog protein (Shh)
# assay.summary: small-molecule binders of Shh protein, primary screen, biochemical, small-molecule microarray, 635/667 nm fluorescence (AID 1151);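 note: Shh protein binding to compounds spotted on small-molecule microarray slides; score combines spot fluorescence intensity with signal-to-noise across triplicate slides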
# applied.conditions: small-molecule microarray binding, 635 nm fluorescence; higher = more signal
# composite z-score binned as bucket A = under 0.5, bucket B = from 0.5 up to 1, bucket C = 1 and over

{"compound": "CC(C)CON=C1C[C@@H](O)[C@@H](O)[C@@H]2[C@@H]3C(=O)N(Cc4ccc5c(c4)OCO5)C(=O)[C@@H]3CC[C@@H]12", "cat": "bucket A"}

Req: Field: class (composite z-score) — entry: C[C@@H]1CC[C@H]2C(=O)O[C@@H](CN=[N+]=[N-])CN2[C@H]1c1ccc(Br)cc1
Resp: bucket B

Req: Field: class (composite z-score) — entry: CC(CCC(=O)OC[C@H]1O[C@H](C#Cc2ccccc2)C=C[C@@H]1Oc1ccc(C)cc1)=NOC(C)CN1CCCc2nc(C)c(C)cc21 (stereo partly specified)
Resp: bucket A

Req: Field: class (composite z-score) — entry: C=CC[C@@H]1C=C[C@H](ON=C(C)CCN2CCCCc3nc(C)c(C)cc32)[C@@H](CO)O1
Resp: bucket C

Req: Field: class (composite z-score) — entry: COc1ccc(OC[C@H]2CN3[C@@H](CC[C@@H](C)[C@@H]3c3ccc(Br)cc3)C(=O)O2)cc1
Resp: bucket B

Req: Field: class (composite z-score) — entry: CC(CCC(=O)OC[C@H]1O[C@H](C#Cc2ccccc2)C=C[C@@H]1Oc1ccc(C)cc1)=NOC(C)CN1CCCCc2nc(C)c(C)cc21 (stereo partly specified)
Resp: bucket B

* * *

Parameter: z-score. Scope: all listed entries.
# assay.summary: S. cerevisiae growth modulation with rapamycin, primary screen, strain BY4716, OD600, 96 h (AID 1091); note: test concentration not given here
# applied.conditions: higher = more signal, called active from +8 up or from −8 down
Number, no unit, nothing else.

Here is how some compounds turned out for z-score.
{"compound": "C#CCCCON=C1C[C@@H](O)[C@@H](O)[C@@H]2[C@@H]3C(=O)N(C4CCCCC4)C(=O)[C@@H]3CC[C@@H]12", "z-score": -1.07}
{"compound": "COC(=O)[C@H](CCSC)NC(=O)CC=C[C@@H](C)CO", "z-score": 0.451}
{"compound": "CCOC(=O)[C@H](CC(C)C)NC(=O)CCC1CC(OC(=O)NCc2ccc3c(c2)OCO3)CC2(CCCC(COC(=O)NCCOc3ccccc3)O2)O1 (stereo not given in full)", "z-score": -0.211}
{"compound": "CCOC(=O)[C@H](CC(C)C)NC(=O)CCC1CC(OC(=O)NCc2ccc3c(c2)OCO3)CC2(CCCC(COC(=O)NCCc3ccccc3OC)O2)O1 (stereo not given in full)", "z-score": 0.947}
{"compound": "COC(=O)[C@H](C)NC(=O)CCC1CC(OC(=O)NCc2cccc3ccccc23)CC2(CCCC(COC(=O)NCCC(C)C)O2)O1 (stereo not given in full)", "z-score": -0.642}
{"compound": "C[C@H]1C=CCC(=O)OC[C@H](C)C(=O)N2CCC[C@H]2C(=O)OC1", "z-score": -0.0933}
{"compound": "COc1cccc([C@H]2Oc3ccc(OC)cc3C(=NO[C@@H](C)c3cc(-c4c(C)cc(C)cc4C)no3)[C@@H]2O)c1", "z-score": 0.626}
{"compound": "CO[C@@H]1[C@H](O)CO[C@H]1C=Cc1ccccc1", "z-score": -0.376}
{"compound": "CSCC[C@@H]1NC(=O)CC=C[C@@H](C)COC(=O)[C@H](C)COC1=O", "z-score": -0.894}
{"compound": "CCN1C(=O)[C@H]2[C@H]3[C@H](O)[C@H](O)CC(=NO[C@@H]4O[C@H](COC(C)=O)[C@@H](OC(C)=O)[C@H](OC(C)=O)[C@H]4OC(C)=O)[C@@H]3CC[C@H]2C1=O", "z-score": 0.47}

Req: Retrieve z-score measured for O=C1C2=CC[C@H]3C(=O)N(C[C@@H]4CCCO4)C(=O)[C@H]3[C@H]2[C@H](O)[C@@H]2O[C@H]12 and print it.
Resp: 0.109

Req: Retrieve z-score measured for O=C1C=C[C@@H](O)[C@@H]2[C@@H]3C(=O)N(Cc4ccccc4)C(=O)[C@@H]3CC[C@@H]12 and print it.
Resp: -0.795

Req: Retrieve z-score measured for O=C1[C@H]2[C@H]3[C@H](O)[C@H](O)CC(=NO[C@@H]4O[C@H](CO)[C@@H](O)[C@H](O)[C@H]4O)[C@H]3CC[C@H]2C(=O)N1c1ccc(F)cc1F and print it.
Resp: -1.99

Req: Retrieve z-score measured for O=C1[C@H]2[C@H]3[C@H](O)[C@H](O)CC(=NOCc4ccccc4)[C@H]3CC[C@H]2C(=O)N1C1CCCCC1 and print it.
Resp: -0.858

Req: Retrieve z-score measured for O=C(NN=C1C[C@@H](O)[C@@H](O)[C@@H]2[C@@H]3C(=O)N(Cc4ccccc4)C(=O)[C@@H]3CC[C@H]12)OCc1ccccc1 and print it.
Resp: -1.27

* * *

# assay.summary: basal RPMI8226 mitochondrial membrane potential changes, profiling panel, cell-based, JC-1 fluorescence, 24 h, 100 nL compound (AID 1169); note: test concentration not given here
# applied.conditions: RPMI8226 myeloma, JC-1 mitochondrial potential fluorescence, higher = more signal
Parameter: z-score. Scope: all listed entries.

Here is how some compounds turned out for z-score.
{"compound": "C[C@H]1CC[C@@H](C(=O)O)N[C@@H]1c1cccc(N2CCCC2=O)c1", "measured.parameter": "z-score", "result": 0.468}
{"compound": "CCOC(=O)CCN1C(=O)[C@H]2[C@H]3[C@H](O)[C@H](O)CC(=NNC(=O)OCC)[C@H]3CC[C@H]2C1=O", "measured.parameter": "z-score", "result": -0.541}
{"compound": "CC(CCC(=O)OC[C@H]1O[C@H](C#Cc2ccccc2)C=C[C@@H]1Oc1ccc(C)cc1)=NOC[C@@H](C)[C@H](OCc1ccccc1)C(C)C", "measured.parameter": "z-score", "result": 1.06}
{"compound": "CC(C)=CCCC(C)=CCON=C1C[C@@H](O)[C@@H](O)[C@@H]2[C@@H]3C(=O)N([C@@H](C)c4ccccc4)C(=O)[C@@H]3CC[C@@H]12", "measured.parameter": "z-score", "result": 0.0813}
{"compound": "CCOC(=O)[C@H](Cc1ccccc1)NC(=O)CCC1CC(OC(=O)NCc2ccc3c(c2)OCO3)CC2(CCCC(COC(=O)NCCc3ccc(Cl)cc3)O2)O1 (some centres not stated)", "measured.parameter": "z-score", "result": -0.162}

Req: Retrieve z-score measured for O=C1[C@H]2[C@H]3[C@H](O)[C@H](O)CC(=NOCc4ccccc4)[C@@H]3CC[C@H]2C(=O)N1c1cccc(Oc2ccccc2)c1 and print it.
Resp: 0.542

Req: Retrieve z-score measured for CC(C)=NOC[C@@H](O)[C@H]1O[C@@H]2OC(C)(C)O[C@@H]2[C@H]1O and print it.
Resp: -1.01

* * *

# Test system: Neuregulin-1 EGF-like domain
# assay.summary: binders of neuregulin-1 EGF-like domain, primary screen, biochemical, small-molecule microarray, 635 nm fluorescence (AID 1081);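 note: binding of the protein to compounds printed on small-molecule microarray slides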
# applied.conditions: small-molecule microarray binding, higher = more signal
Parameter: composite z-score. Scope: all listed entries.

Here is how some compounds turned out for composite z-score.
{"compound": "COc1ccc(OC[C@@H](CO)OC)cc1", "composite z-score": -0.0824}
{"compound": "O=C1C2=CC[C@H]3C(=O)N(C[C@@H]4CCCO4)C(=O)[C@H]3[C@H]2[C@H](O)[C@@H]2O[C@H]12", "composite z-score": 0.75}
{"compound": "CC(C)CON=C1[C@H]2CCn3c(=O)n(C)c(=O)n3[C@H]2[C@H](O)[C@@H]2O[C@H]12", "composite z-score": 0.157}
{"compound": "COc1ccc(O[C@H]2C=C[C@@H](C#Cc3ccccc3)O[C@@H]2CO)cc1", "composite z-score": 0.644}

Lab note: next compound to report on.
Req: Retrieve composite z-score measured for O=C1CCCC=C1C(O)COCc1ccccc1 (stereo not given) and print it.
Resp: 0.332
